experimental.details: Biodistribution of radiotracers in normal mice
Format: in vivo, mouse
condition.description: normal male mice, 60 min
Record form. Attribute: Biodistribution: Heart. Fill in for each entry.
Write the answer as a number in % dose/g, unit excluded.

[in] Could you tell me which Biodistribution: Heart is on file for O=C(O)CC[C@H](NC(=O)N[C@@H](CCCCNC(=O)CCCCCNC(=O)CCc1ccc2c(n1)C[N+]13CC[N+]45CC(=O)[O][68Ga-3]14([O]C(=O)C3)([O]2)[O]c1ccc(CCC(=O)NCCCCCC(=O)NCCCC[C@H](NC(=O)N[C@@H](CCC(=O)O)C(=O)O)C(=O)O)nc1C5)C(=O)O)C(=O)O (stereo partly shown) [[^68Ga]3] ?
[out] 0.82

[in] Name the reported Biodistribution: Heart value associated with the molecule O=C(O)CCc1ccc2c(c1)C[N+]13CC[N+]45CC(=O)[O][68Ga-3]14([O]C(=O)C3)([O]2)[O]c1ccc(CCC(=O)NCC(=O)N[C@@H](Cc2ccc(OCC(=O)N[C@@H](Cc3ccccc3)C(=O)NCCCC[C@H](NC(=O)N[C@@H](CCC(=O)O)C(=O)O)C(=O)O)cc2)C(=O)O)cc1C5 (stereo partly shown) [[^68Ga]5b]
[out] 0.40

[in] Recorded Biodistribution: Heart of O=C(O)CCc1ccc2c(n1)C[N+]13CC[N+]45CC(=O)[O][68Ga-3]14([O]C(=O)C3)([O]2)[O]c1ccc(CCC(=O)NCCCCCC(=O)NCCCC[C@H](NC(=O)N[C@@H](CCC(=O)O)C(=O)O)C(=O)O)nc1C5 (stereo partly shown) [[^68Ga]2] , please.
[out] 0.33

[in] Recorded Biodistribution: Heart for O=C(O)CCc1ccc(O)c(CN(CCN(CC(=O)O)Cc2cc(CCC(=O)NCCCCCC(=O)NCCCC[C@H](NC(=O)N[C@@H](CCC(=O)O)C(=O)O)C(=O)O)ccc2O)CC(=O)O)n1 [[^68Ga]4a, metal not drawn] , please?
[out] 0.31

----------
experimental.details: Biodistribution of radiotracers in normal mice
Format: in vivo, mouse
condition.description: normal male mice, 2 min
observable: Biodistribution: Pancreas (% dose/g)
The answer is to be given in % dose/g; state only the numeric part.

[in] Would you mind telling me what Biodistribution: Pancreas value was observed for O=C(O)CC[C@H](NC(=O)CCc1ccc2c(c1)C[N+]13CC[N+]45CC(=O)[O][68Ga-3]41([O]C(=O)C3)([O]c1ccc(CCC(=O)NCCCCCC(=O)NCCCC[C@H](NC(=O)N[C@@H](CCC(=O)O)C(=O)O)C(=O)O)cc1C5)[O]2)C(=O)O (stereo partly shown) [[^68Ga]1f] ?
[out] 1.72

[in] Query: Biodistribution: Pancreas; subject: C[C@H](NC(=O)CCc1ccc2c(c1)C[N+]13CC[N+]45CC(=O)[O][68Ga-3]41([O]C(=O)C3)([O]c1ccc(CCC(=O)NCCCCCC(=O)NCCCC[C@H](NC(=O)N[C@@H](CCC(=O)O)C(=O)O)C(=O)O)cc1C5)[O]2)C(=O)O (stereo partly shown) [[^68Ga]1d]
[out] 1.83

[in] Please look up its Biodistribution: Pancreas: O=C(O)CCc1ccc(O)c(CN(CCN(CC(=O)O)Cc2cc(CCC(=O)NCCCCCC(=O)NCCCC[C@H](NC(=O)N[C@@H](CCC(=O)O)C(=O)O)C(=O)O)ccc2O)CC(=O)O)n1 [[^68Ga]4a, metal not drawn]
[out] 2.35

[in] Need Biodistribution: Pancreas of O=C(O)CCc1ccc2c(c1)C[N+]13CC[N+]45CC(=O)[O][68Ga-3]14([O]C(=O)C3)([O]2)[O]c1ccc(CCC(=O)NCCCCCC(=O)NCCCC[C@H](NC(=O)N[C@@H](CCC(=O)O)C(=O)O)C(=O)O)cc1C5 (stereo partly shown) [[^68Ga]1a, reference compound] , thanks.
[out] 1.91

[in] # get_value(readout='Biodistribution: Pancreas', item= O=C(O)CCc1ccc2c(n1)C[N+]13CC[N+]45CC(=O)[O][68Ga-3]14([O]C(=O)C3)([O]2)[O]c1ccc(CCC(=O)NCCCCCC(=O)NCCCC[C@H](NC(=O)N[C@@H](CCC(=O)O)C(=O)O)C(=O)O)nc1C5 (stereo partly shown) [[^68Ga]2] )
[out] 1.85

[in] Recorded Biodistribution: Pancreas of O=C(O)CC[C@H](NC(=O)N[C@@H](CCCCNC(=O)CCCCCNC(=O)CCc1ccc2c(n1)C[N+]13CC[N+]45CC(=O)[O][68Ga-3]14([O]C(=O)C3)([O]2)[O]c1ccc(CCC(=O)NCCCCCC(=O)NCCCC[C@H](NC(=O)N[C@@H](CCC(=O)O)C(=O)O)C(=O)O)nc1C5)C(=O)O)C(=O)O (stereo partly shown) [[^68Ga]3] , please.
[out] 2.89

[in] Return reported Biodistribution: Pancreas; argument: O=C(O)CCc1ccc2c(c1)C[N+]13CC[N+]45CC(=O)[O][68Ga-3]14([O]C(=O)C3)([O]2)[O]c1ccc(CCC(=O)NCC(=O)N[C@@H](Cc2ccc(OCC(=O)N[C@@H](Cc3ccccc3)C(=O)NCCCC[C@H](NC(=O)N[C@@H](CCC(=O)O)C(=O)O)C(=O)O)cc2)C(=O)O)cc1C5 (stereo partly shown) [[^68Ga]5b]
[out] 2.18

[in] Query (molecule): O=C(O)CC[C@H](NC(=O)N[C@@H](CCCCNC(=O)CCCCCNC(=O)CCc1ccc2c(c1)C[N+]13CC[N+]45CC(=O)[O][68Ga-3]14([O]C(=O)C3)([O]2)[O]c1ccc(CCC(=O)NCC(=O)O)cc1C5)C(=O)O)C(=O)O (stereo partly shown) [[^68Ga]1c] ; field requested: Biodistribution: Pancreas
[out] 2.20

[in] Name the reported Biodistribution: Pancreas value associated with the molecule O=C(O)CC[C@H](NC(=O)N[C@@H](CCCCNC(=O)CCCCCNC(=O)CCc1ccc2c(c1)C[N+]13CC[N+]45CC(=O)[O][68Ga-3]14([O]C(=O)C3)([O]2)[O]c1ccc(CCC(=O)NCCNC(=O)CN2CCN(CC(=O)O)CCN(CC(=O)O)CCN(CC(=O)O)CC2)cc1C5)C(=O)O)C(=O)O (stereo partly shown) [[^68Ga]1g]
[out] 1.73

[in] Request the reported Biodistribution: Pancreas associated with O=C(O)CC[C@H](NC(=O)N[C@@H](CCCCNC(=O)CCCCCNC(=O)CCc1ccc2c(c1)C[N+]13CC[N+]45CC(=O)[O][68Ga-3]14([O]C(=O)C3)([O]2)[O]c1ccc(CCC(=O)N[C@@H](CC(=O)O)C(=O)O)cc1C5)C(=O)O)C(=O)O (stereo partly shown) [[^68Ga]1e]
[out] 1.80

----------
experimental.details: Biodistribution of radiotracers in normal mice
Type: in vivo, mouse
condition.description: normal male mice, 2 min
Consider the following molecules; for each one, report its Biodistribution: Bone.
Your answer is read as % dose/g, so omit the unit and give the number.

[in] Requested field: Biodistribution: Bone. Item: C[C@H](NC(=O)CCc1ccc2c(c1)C[N+]13CC[N+]45CC(=O)[O][68Ga-3]41([O]C(=O)C3)([O]c1ccc(CCC(=O)NCCCCCC(=O)NCCCC[C@H](NC(=O)N[C@@H](CCC(=O)O)C(=O)O)C(=O)O)cc1C5)[O]2)C(=O)O (stereo partly drawn) [[^68Ga]1d]
[out] 2.01

[in] What value of Biodistribution: Bone has been reported for the following molecule? O=C(O)CCc1ccc(O)c(CN(CCN(CC(=O)O)Cc2cc(CCC(=O)NCCCCCC(=O)NCCCC[C@H](NC(=O)N[C@@H](CCC(=O)O)C(=O)O)C(=O)O)ccc2O)CC(=O)O)n1 [[^68Ga]4a, metal not drawn]
[out] 2.33

[in] GET /values?readout=Biodistribution: Bone&item= O=C(O)CC[C@H](NC(=O)N[C@@H](CCCCNC(=O)CCCCCNC(=O)CCc1ccc2c(c1)C[N+]13CC[N+]45CC(=O)[O][68Ga-3]14([O]C(=O)C3)([O]2)[O]c1ccc(CCC(=O)NCC(=O)O)cc1C5)C(=O)O)C(=O)O (stereo partly drawn) [[^68Ga]1c]
[out] 2.30

[in] // lookup Biodistribution: Bone for O=C(O)CCc1ccc2c(c1)C[N+]13CC[N+]45CC(=O)[O][68Ga-3]14([O]C(=O)C3)([O]2)[O]c1ccc(CCC(=O)NCC(=O)N[C@@H](Cc2ccc(OCC(=O)N[C@@H](Cc3ccccc3)C(=O)NCCCC[C@H](NC(=O)N[C@@H](CCC(=O)O)C(=O)O)C(=O)O)cc2)C(=O)O)cc1C5 (stereo partly drawn) [[^68Ga]5b]
[out] 2.16

[in] // Biodistribution: Bone lookup, key: O=C(O)CC[C@H](NC(=O)CCc1ccc2c(c1)C[N+]13CC[N+]45CC(=O)[O][68Ga-3]41([O]C(=O)C3)([O]c1ccc(CCC(=O)NCCCCCC(=O)NCCCC[C@H](NC(=O)N[C@@H](CCC(=O)O)C(=O)O)C(=O)O)cc1C5)[O]2)C(=O)O (stereo partly drawn) [[^68Ga]1f]
[out] 2.33

[in] For the molecule shown here, O=C(O)CCc1ccc2c(n1)C[N+]13CC[N+]45CC(=O)[O][68Ga-3]14([O]C(=O)C3)([O]2)[O]c1ccc(CCC(=O)NCCCCCC(=O)NCCCC[C@H](NC(=O)N[C@@H](CCC(=O)O)C(=O)O)C(=O)O)nc1C5 (stereo partly drawn) [[^68Ga]2] , give the reported Biodistribution: Bone.
[out] 2.18
